The measurements presented in this section are drawn from paper PMC11316031.

Molecular target: Arp3 (subunit of the Arp2/3 complex) (Homo sapiens)
Construct: recombinant human Arp2/3 iso-complex containing Arp3/ArpC1A/C5L; with Arp2/3 complex (Arp2, ArpC1A, ArpC2, ArpC3, ArpC4, ArpC5L)
Assay: TIRF actin branching rate with GST-N-WASP-VCA-activated recombinant Arp2/[…]; also pyrene actin polymerisation
endpoint: IC50 (nM)
Entry rule: numbers only, all in nM.

Input line: Quote IC50 reported for COc1ccc(N2C(=O)CSC2c2cccc(Br)c2)c(OC)c1 (stereo not shown) please.
Output line: 860

====

Molecular target: Arp2 (subunit of the Arp2/3 complex) (Homo sapiens, UniProt P61158+P61160)
Construct: recombinant human Arp2/3 iso-complex containing Arp3/ArpC1A/C5L; with Arp3 (ACTR3, P61158), within the Arp2/3 complex
Experiment: TIRF actin branching rate with GST-N-WASP-VCA-activated recombinant Arp2/[…]; also pyrene actin polymerisation
endpoint: IC50
Write the figure, then the unit, nothing else.

Input line: Quote IC50 reported for Cc1[nH]c2ccccc2c1CCNC(=O)c1ccccc1F [CK-666] please.
Output line: 19.9 µM
